# credit: PubChem BioAssay

Experiment: binders of probe aFGF2 on microarray, primary screen, stem cell growth factor project, biochemical, small-molecule microarray, fluorescence 635/667 (AID 1067);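 also: measures binding of biotinylated aFGF2 protein to printed compounds on slides; z-score merges feature fluorescence and signal-to-noise across triplicate slides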
Conditions: higher = more signal
readout name: composite z-score

>>> df
                           smiles_structure  reported_value
0  C=CCNC(=O)[C@@H]1[C@H]2C(=O)O[C@H](c3ccccc3)[C@H](c3ccccc3)N2[C@H](c2ccc(O)cc2)[C@@]12C(=O)Nc1ccc(C#CCNC(N)=O)cc12          -0.114
1  COCCCNC(=O)[C@@H]1c2ccccc2C(=O)N(Cc2ccccc2Cl)[C@H]1c1ccc(CO)cc1          -0.117
2  CO[C@H]1O[C@H](CO)[C@@H](OC(=O)Nc2cccc(F)c2)[C@H](OC(=O)Nc2ccccc2)[C@@H]1OC(=O)Nc1ccccc1           0.185
3  COC(=O)[C@@]1(Cc2ccc(OC)cc2)[C@H]2c3cc(C(=O)N(C)C)n(C)c3C[C@H]2CN1C(=O)c1ccccc1            0.24
4  O=C1C[C@@](C(=O)NC2CC2)(c2ccc([N+](=O)[O-])cc2)[C@@H](c2ccc(CO)cc2I)N1C1CCCCC1          0.0043
5  C[N+](C)(C)CCCC[C@@H]1NC(=O)[C@H]2C[C@@H](C(=O)NCCCCCCNC(=O)CS)[C@@H](c3cccc(OCCO)c3)N2C1=O          -0.172

---

Tested on: Chordin-like protein 2 (CHRDL2)
Experiment: CHRDL2 small-molecule binders, primary screen, biochemical, small-molecule microarray, 635 nm fluorescence (AID 1126);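 also: printed compound slides probed with Chrdl2 protein at 4 µg/mL for 1 h at 4 C; score merges 667 nm emission intensity with signal to noise over three replicate slides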
Conditions: small-molecule microarray binding, fluorescence 635 nm; higher = more signal

molecule	composite z-score
O=C(N1CCCCC1)[C@]1(Cc2ccccc2)N=C(c2ccc(OCCCO)cc2)O[C@@H]1c1ccccc1	-0.862
NC(=O)N1C(=O)C2C(C1=O)C1C=C(c3ccc(CO)cc3)C2C(c2cccs2)N1Cc1cccc(OC(F)(F)F)c1 (stereo unspecified)	0.38
CC1(C)[C@@H]2CC(C(O)C3C=CC4C(=O)N(c5ccccc5)C(=O)C4N3Nc3ccc([N+](=O)[O-])cc3)=C[C@H]1C2 (stereo partly specified)	0.649
COCCOC(=O)N1C(=O)[C@@]2(c3cc(C#CC4(O)CCCCCC4)ccc31)[C@H](c1ccc(OCCO)cc1)N1[C@H](c3ccccc3)[C@H](c3ccccc3)OC(=O)[C@H]1[C@@H]2C(=O)N1CCN(c2ncccn2)CC1	0.34
COc1ccc(-c2cc3c(c(-c4ccc(Oc5ccccc5)cc4)n2)[Si](C(C)C)(C(C)C)OC3)cn1	-0.0581
CCOC(=O)C[C@H]1[C@H](OC(=O)c2ccc(C(=O)c3ccccc3)cc2)[C@@H](NC(=O)c2ccc3ccccc3c2)c2cc(OCCCO)ccc2N1C(=O)Cc1ccc(OC)cc1	-0.197

---

Assay: modulators of S6 phosphorylation in cells, primary screen, cell-based, A549, cytoblot, luminescence, serum-stimulated (AID 1158);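 also: serum-stimulated A549 lung adenocarcinoma cells; signal is phosphorylated S6 detected by cytoblot immunostaining with HRP secondary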
Details: A549 phospho-S6 cytoblot, 5 h, higher = more signal
# z-score values compiled below
readout name: z-score

                           smiles_structure  reported_value
0  COC(=O)[C@@]1(Cc2ccc(F)cc2)[C@H]2c3cc(C(=O)N4CCCC4)n(Cc4ccc(S(C)(=O)=O)cc4)c3C[C@H]2CN1C(=O)c1ccccc1          -0.339
1  CCCC[C@@H]1C[C@H]1[C@@H](NC(=O)C(C)(C)C)c1ccc(C(F)(F)F)cc1             2.6
2  COCCOC(=O)N1C(=O)[C@@]2(c3cc(C#CCCO)ccc31)[C@H](C(N)=O)[C@H]1C(=O)O[C@H](c3ccccc3)[C@H](c3ccccc3)N1[C@@H]2c1ccc(O)cc1          -0.237
3  CN(C)CCCC[C@@H]1NC(=O)[C@H]2C[C@@H](C(=O)NCCCCCCN)[C@@H](c3ccc(O)cc3)N2C1=O           -0.24
4  CC(C)N1C(=O)c2ccccc2[C@](C)(C(=O)NCCN2CCOCC2)[C@@H]1c1ccc(CO)cc1          -0.522
5  C=CCNC(=O)[C@@H]1[C@H]2C(=O)O[C@H](c3ccccc3)[C@H](c3ccccc3)N2[C@H](c2ccc(O)cc2)[C@@]12C(=O)Nc1ccc(C#CCNC(N)=O)cc12          -0.203
